List of residual activity values.
assay-target: Serine/threonine-protein kinase NLK (Homo sapiens) (UniProt Q9UBE8)
Sequence (Q9UBE8 whole entry): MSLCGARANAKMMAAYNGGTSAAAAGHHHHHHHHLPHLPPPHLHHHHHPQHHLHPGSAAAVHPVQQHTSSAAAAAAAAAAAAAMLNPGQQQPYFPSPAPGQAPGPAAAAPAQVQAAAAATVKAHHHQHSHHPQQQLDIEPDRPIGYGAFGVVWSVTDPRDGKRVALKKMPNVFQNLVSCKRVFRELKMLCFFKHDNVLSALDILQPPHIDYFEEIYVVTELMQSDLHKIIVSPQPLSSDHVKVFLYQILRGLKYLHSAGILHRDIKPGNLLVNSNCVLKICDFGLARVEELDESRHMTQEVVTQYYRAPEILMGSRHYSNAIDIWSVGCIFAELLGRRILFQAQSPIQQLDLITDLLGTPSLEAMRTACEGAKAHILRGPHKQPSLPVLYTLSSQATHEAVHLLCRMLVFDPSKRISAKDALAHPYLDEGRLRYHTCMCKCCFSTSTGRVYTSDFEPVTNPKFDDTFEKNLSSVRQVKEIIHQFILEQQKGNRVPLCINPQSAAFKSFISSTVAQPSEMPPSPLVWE
conditions-used: at 1 µM
Give the value, in units of %, as a plain number.

Example entries and their recorded answers appear below.
# compound, residual activity (%)
measured = [
    ("COc1ccc(Cl)cc1NC(=O)Nc1cc(C)nc2ccccc12", 99),
    ("Nc1n[nH]c2nc3ccccc3nc12", 97),
    ("O=C1Cc2c([nH]c3ccc(Br)cc23)-c2ccccc2N1", 83),
]

Sure, the documented residual activity for O=c1cc(N2CCOCC2)oc2c1ccc1ccccc12 is 108

Summary for this compound, CN([C@@H](Cc1ccc(OS(=O)(=O)c2cccc3cnccc23)cc1)C(=O)N1CCN(c2ccccc2)CC1)S(=O)(=O)c1cccc2cnccc12 : residual activity is 100

Record CCCCc1c(-c2ccc(OC)cc2)[nH]c2nccnc12 . Reported residual activity: 83

* * *

assay-target: Tyrosine-protein kinase receptor TYRO3 (Homo sapiens)
Sequence (whole entry): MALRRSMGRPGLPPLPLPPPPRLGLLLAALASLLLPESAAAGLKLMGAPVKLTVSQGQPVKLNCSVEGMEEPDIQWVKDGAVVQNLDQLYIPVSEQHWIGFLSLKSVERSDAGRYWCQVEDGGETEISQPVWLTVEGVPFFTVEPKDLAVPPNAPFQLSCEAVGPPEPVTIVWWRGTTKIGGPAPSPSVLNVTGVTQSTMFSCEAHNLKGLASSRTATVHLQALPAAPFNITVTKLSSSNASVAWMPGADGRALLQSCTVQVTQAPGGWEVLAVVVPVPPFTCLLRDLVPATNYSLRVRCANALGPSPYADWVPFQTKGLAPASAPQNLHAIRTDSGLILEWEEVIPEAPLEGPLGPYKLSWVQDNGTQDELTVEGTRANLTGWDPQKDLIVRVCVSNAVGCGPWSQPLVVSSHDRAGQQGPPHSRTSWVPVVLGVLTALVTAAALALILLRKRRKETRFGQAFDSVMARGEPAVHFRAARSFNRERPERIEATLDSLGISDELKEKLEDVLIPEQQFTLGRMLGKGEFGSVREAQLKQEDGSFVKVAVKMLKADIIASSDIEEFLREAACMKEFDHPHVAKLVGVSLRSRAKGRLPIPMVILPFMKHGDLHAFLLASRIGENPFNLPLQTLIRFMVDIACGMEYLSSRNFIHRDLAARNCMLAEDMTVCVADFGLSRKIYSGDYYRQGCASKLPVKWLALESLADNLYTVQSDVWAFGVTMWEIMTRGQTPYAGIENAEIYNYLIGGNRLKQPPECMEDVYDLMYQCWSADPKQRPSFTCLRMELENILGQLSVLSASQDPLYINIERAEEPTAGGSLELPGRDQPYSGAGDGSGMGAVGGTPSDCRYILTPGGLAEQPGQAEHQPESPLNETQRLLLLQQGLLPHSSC
conditions-used: at 1 µM
quantity-measured: residual activity (%)
Record the value in %, omitting the unit from your answer.

# smiles-text, assay-target, quantity-measured, number
records = [
    ("COc1cc2nccc(Oc3ccc(NC(=O)Nc4cc(C)on4)c(Cl)c3)c2cc1OC", "Tyrosine-protein kinase receptor TYRO3 (Homo sapiens)", "residual activity", 10),
    ("Oc1cccc(-c2nc(N3CCOCC3)c3oc4ncccc4c3n2)c1", "Tyrosine-protein kinase receptor TYRO3 (Homo sapiens)", "residual activity", 82),
    ("Nc1ncnc2[nH]nc(Nc3ccc(F)cc3)c12", "Tyrosine-protein kinase receptor TYRO3 (Homo sapiens)", "residual activity", 104),
    ("N#C/C(=C1/Nc2ccccc2S1)c1ccnc(NCCc2cccnc2)n1", "Tyrosine-protein kinase receptor TYRO3 (Homo sapiens)", "residual activity", 97),
    ("O=C(CCCc1ccc(-c2ccccc2F)cc1)Nc1ccc(O)cc1", "Tyrosine-protein kinase receptor TYRO3 (Homo sapiens)", "residual activity", 102),
]

response.value for CC(C)(C)c1nc2c3ccc(F)cc3c3c(=O)[nH]ccc3c2[nH]1 (field: residual activity) = 75

Record Nc1ncnc2c1cnn2-c1ccccc1 . Reported residual activity: 90

residual activity in this record for CC(C)[C@H](CO)Nc1nc(Nc2cc(N)cc(Cl)c2)c2ncn(C(C)C)c2n1 : 84

Briefly, residual activity measured for NC(=O)Nc1sc(-c2ccc(F)cc2)cc1C(N)=O : 91

Reported residual activity for Nc1n[nH]c2nc3ccccc3nc12 was 99

The measured residual activity associated with CN([C@@H](Cc1ccc(OS(=O)(=O)c2cccc3cnccc23)cc1)C(=O)N1CCN(c2ccccc2)CC1)S(=O)(=O)c1cccc2cnccc12 reads 118

* * *

assay-target: Serine/threonine-protein kinase Sgk1 (Homo sapiens) (UniProt O00141)
Sequence (O00141 whole entry): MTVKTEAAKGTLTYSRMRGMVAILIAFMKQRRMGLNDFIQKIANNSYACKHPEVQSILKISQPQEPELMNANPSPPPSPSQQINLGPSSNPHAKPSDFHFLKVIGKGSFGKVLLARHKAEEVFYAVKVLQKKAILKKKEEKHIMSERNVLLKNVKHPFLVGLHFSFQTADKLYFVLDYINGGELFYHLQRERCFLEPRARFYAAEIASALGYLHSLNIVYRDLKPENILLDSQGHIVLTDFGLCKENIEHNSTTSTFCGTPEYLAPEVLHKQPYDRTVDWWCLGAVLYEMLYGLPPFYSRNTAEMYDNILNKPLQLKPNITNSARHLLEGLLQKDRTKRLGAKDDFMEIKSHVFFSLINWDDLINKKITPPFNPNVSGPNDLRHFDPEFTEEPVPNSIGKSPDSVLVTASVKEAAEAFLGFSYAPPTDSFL
conditions-used: at 10 µM
Catalogue of residual activity readings, one per entry.
Returns: string containing the number followed by the unit.

Sample answers from the record:
# smiles-text, quantity-measured, result
rows = [
    ("CCCC(=O)Oc1ccc2[nH]c(C(=O)c3cc4ccccc4[nH]3)cc2c1", "residual activity", "95%"),
    ("COc1ccc(-c2cnc3c(-c4ccsc4)cnn3c2)cc1", "residual activity", "94%"),
    ("Cn1c2ccccc2c2c3c(c4c5ccccc5n(CCC#N)c4c21)CNC3=O", "residual activity", "40%"),
    ("O=C1C(Cl)=C(N2C(=O)CCC2=O)C(=O)c2ccccc21", "residual activity", "100%"),
    ("NC(=O)c1cccc(-c2cc(Nc3ccc(OC(F)(F)F)cc3)ncn2)c1", "residual activity", "159%"),
]

Record summary for COc1ccc2c(c1)c(C1=C(c3c[nH]c4ccccc34)C(=O)NC1=O)cn2CCCN(C)C : reported residual activity = 56%

The compound listed as O=C1Cc2c([nH]c3ccc(Br)cc23)-c2ccccc2N1 shows residual activity equal to 81%

Lookup result for O=C1Nc2ccc(Cl)cc2/C1=C/c1cc(Cl)c(O)c(Cl)c1 ; measured residual activity: 69%

* * *

assay-target: Maternal embryonic leucine zipper kinase (Homo sapiens)
conditions-used: at 1 µM
Listed here: items and their measured residual activity.
Dear colleague, please return just the value in %, with no unit written.

Before answering, review these 10 worked examples.
# compound, assay-target, residual activity / %
records = [
    ("Oc1cccc(-c2nc(N3CCOCC3)c3oc4ncccc4c3n2)c1", "Maternal embryonic leucine zipper kinase (Homo sapiens)", 74),
    ("O=C(CCCc1ccc(-c2ccccc2F)cc1)Nc1ccc(O)cc1", "Maternal embryonic leucine zipper kinase (Homo sapiens)", 100),
    ("COc1ccc(-c2cnc3c(-c4ccsc4)cnn3c2)cc1", "Maternal embryonic leucine zipper kinase (Homo sapiens)", 80),
    ("CC(C)(C)c1nc2c3ccc(F)cc3c3c(=O)[nH]ccc3c2[nH]1", "Maternal embryonic leucine zipper kinase (Homo sapiens)", 2),
    ("CSc1nc(-c2ccc(F)cc2)c(-c2ccnc(NC(C)c3ccccc3)c2)[nH]1 (stereo not given)", "Maternal embryonic leucine zipper kinase (Homo sapiens)", 88),
    ("O=C1Nc2ccccc2/C1=C\\c1c(Cl)[nH]c2ccccc12", "Maternal embryonic leucine zipper kinase (Homo sapiens)", 77),
    ("Cn1sc(=O)n(Cc2ccccc2)c1=O", "Maternal embryonic leucine zipper kinase (Homo sapiens)", 88),
    ("N#C/C(=C1/Nc2ccccc2S1)c1ccnc(NCCc2cccnc2)n1", "Maternal embryonic leucine zipper kinase (Homo sapiens)", 74),
    ("O=C(Nc1ccc(Cl)cc1)c1ccccc1NCc1ccncc1", "Maternal embryonic leucine zipper kinase (Homo sapiens)", 75),
    ("O=C1NC(=O)C(c2c[nH]c3ccccc23)=C1c1c[nH]c2ccccc12", "Maternal embryonic leucine zipper kinase (Homo sapiens)", 80),
]

In the following, a different compound is considered.
Given item COc1cc2c(cc1OC)-c1n[nH]c(Nc3cccc(F)c3)c1C2 , the value recorded as its residual activity is 47

* * *

assay-target: SRSF protein kinase 2 (Homo sapiens)
conditions-used: at 1 µM
quantity-measured: residual activity (%)
Unit % implied. Number only.

# smiles-text, residual activity / %
measured = [
    ("O=C1NC(=O)c2c1c1c3ccccc3[nH]c1n1cncc21", 103),
]

Now look at this one.
Lab note: measured residual activity of CCOC(=O)c1c(C)[nH]c(/C=C2\C(=O)Nc3ccccc32)c1C was 93

* * *

assay-target: Serine/threonine-protein kinase pim-3 (Homo sapiens) (UniProt Q86V86)
conditions-used: at 10 µM
Recorded residual activity, one value per entry.
Numeric only. Scale: %

Solved cases (3 shown):
# smiles-text, unit-name, residual activity
data = [
    ("O=C1Nc2ccc(Cl)cc2/C1=C/c1cc(Cl)c(O)c(Cl)c1", "%", 30),
    ("N#C/C(=C1/Nc2ccccc2S1)c1ccnc(NCCc2cccnc2)n1", "%", 9),
    ("Nc1ncnc2c1cnn2-c1ccccc1", "%", 97),
]

residual activity reading for COc1ccc2c(c1)c(C1=C(c3c[nH]c4ccccc34)C(=O)NC1=O)cn2CCCN(C)C : 17

* * *

assay-target: Ephrin type-A receptor 5 (Homo sapiens) (UniProt P54756)
Sequence (P54756 whole entry): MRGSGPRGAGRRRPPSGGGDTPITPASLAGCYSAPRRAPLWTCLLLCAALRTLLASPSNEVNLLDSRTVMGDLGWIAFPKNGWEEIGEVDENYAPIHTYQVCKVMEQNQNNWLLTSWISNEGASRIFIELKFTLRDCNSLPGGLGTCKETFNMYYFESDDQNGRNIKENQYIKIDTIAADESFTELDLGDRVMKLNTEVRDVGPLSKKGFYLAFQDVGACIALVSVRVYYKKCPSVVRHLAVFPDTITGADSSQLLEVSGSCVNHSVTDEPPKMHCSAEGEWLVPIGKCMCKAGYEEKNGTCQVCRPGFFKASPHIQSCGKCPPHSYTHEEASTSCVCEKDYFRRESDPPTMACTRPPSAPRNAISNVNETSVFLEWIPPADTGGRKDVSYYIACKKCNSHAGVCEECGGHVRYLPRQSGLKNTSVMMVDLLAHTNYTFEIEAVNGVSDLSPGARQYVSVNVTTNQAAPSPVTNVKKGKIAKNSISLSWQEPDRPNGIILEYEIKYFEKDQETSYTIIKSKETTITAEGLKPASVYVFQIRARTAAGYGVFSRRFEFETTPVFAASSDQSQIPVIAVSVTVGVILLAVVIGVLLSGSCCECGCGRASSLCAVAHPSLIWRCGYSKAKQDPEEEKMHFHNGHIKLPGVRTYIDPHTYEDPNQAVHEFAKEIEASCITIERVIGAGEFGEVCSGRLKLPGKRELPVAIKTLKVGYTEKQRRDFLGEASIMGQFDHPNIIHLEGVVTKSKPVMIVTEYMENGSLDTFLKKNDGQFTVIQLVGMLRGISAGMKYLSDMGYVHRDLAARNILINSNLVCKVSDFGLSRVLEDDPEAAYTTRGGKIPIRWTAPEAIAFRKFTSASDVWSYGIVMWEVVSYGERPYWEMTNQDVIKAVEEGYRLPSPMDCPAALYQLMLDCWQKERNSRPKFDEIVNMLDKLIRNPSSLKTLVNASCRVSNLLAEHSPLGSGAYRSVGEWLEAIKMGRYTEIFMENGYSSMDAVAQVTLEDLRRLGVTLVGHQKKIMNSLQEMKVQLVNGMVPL
conditions-used: at 10 µM
Use 90% as the dividing line for residual activity, with the line itself on the 1 side and lower values as 0.

# smiles-text, label
measured = [
    ("COc1cc2nccc(Oc3ccc(NC(=S)NC(=O)c4ccccc4C)cc3)c2cc1OC", 0),
    ("O=C1C(Cl)=C(N2C(=O)CCC2=O)C(=O)c2ccccc21", 1),
    ("O=c1cc(N2CCNCC2)oc2c(-c3ccccc3)cccc12", 1),
    ("O=C1NC(=O)c2c1c1c3ccccc3[nH]c1n1cncc21", 0),
    ("Nc1nc(Nc2ccc(S(N)(=O)=O)cc2)nn1C(=O)c1c(F)cccc1F", 0),
    ("COc1ccc(CNC(=O)Nc2ncc([N+](=O)[O-])s2)cc1", 1),
]

Quick check, residual activity >= 90%? CC(C)c1nn(-c2c(Cl)cccc2Cl)c2nc(Cc3ccc(OCCO)cc3)[nH]c(=O)c12 1

Check if residual activity >= 90% (inclusive). Item: CCCCc1c(-c2ccc(OC)cc2)[nH]c2nccnc12 0
